# assay-system: 5-hydroxytryptamine receptor 3A (Homo sapiens)
# Sequence (whole entry): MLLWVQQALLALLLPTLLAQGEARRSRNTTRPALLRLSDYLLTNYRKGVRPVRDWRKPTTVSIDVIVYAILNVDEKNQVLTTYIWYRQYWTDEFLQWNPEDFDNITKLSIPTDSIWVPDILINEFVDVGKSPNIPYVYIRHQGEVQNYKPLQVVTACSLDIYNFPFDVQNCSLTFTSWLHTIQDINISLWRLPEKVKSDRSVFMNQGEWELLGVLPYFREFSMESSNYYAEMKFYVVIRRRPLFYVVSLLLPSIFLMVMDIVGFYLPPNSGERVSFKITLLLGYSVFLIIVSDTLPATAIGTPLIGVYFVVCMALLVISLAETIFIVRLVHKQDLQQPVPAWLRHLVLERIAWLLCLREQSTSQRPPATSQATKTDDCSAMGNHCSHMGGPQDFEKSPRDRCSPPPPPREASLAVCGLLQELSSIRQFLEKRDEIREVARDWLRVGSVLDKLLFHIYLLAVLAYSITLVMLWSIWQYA
# protocol-description: Antagonist activity at human 5HT3A receptor expressed in HEK293 cells assessed as inhibition of serotonin-induced inward Na+ current at >= 10 uM
# Format: functional, cell-based
Reported inhibition by item:
reported-metric: inhibition

1. FC(F)(F)c1ccc2c(c1)Nc1ccccc1S2    < 50%
2. OCCN1CCN(CCC=C2c3ccccc3Sc3ccc(C(F)(F)F)cc32)CC1    > 50%
3. CC(CN(C)C)CN1c2ccccc2CCc2ccccc21 (stereo not given)    > 50%
4. c1ccc2c(c1)Nc1ccccc1S2    < 50%
5. OCCN1CCN(CCCN2c3ccccc3Sc3ccc(C(F)(F)F)cc32)CC1    > 50%
